Biological target: Kappa opioid receptor (KOR) (Homo sapiens (Human), UniProt P41145 1-380)
Sequence (P41145 whole entry, form in doubt): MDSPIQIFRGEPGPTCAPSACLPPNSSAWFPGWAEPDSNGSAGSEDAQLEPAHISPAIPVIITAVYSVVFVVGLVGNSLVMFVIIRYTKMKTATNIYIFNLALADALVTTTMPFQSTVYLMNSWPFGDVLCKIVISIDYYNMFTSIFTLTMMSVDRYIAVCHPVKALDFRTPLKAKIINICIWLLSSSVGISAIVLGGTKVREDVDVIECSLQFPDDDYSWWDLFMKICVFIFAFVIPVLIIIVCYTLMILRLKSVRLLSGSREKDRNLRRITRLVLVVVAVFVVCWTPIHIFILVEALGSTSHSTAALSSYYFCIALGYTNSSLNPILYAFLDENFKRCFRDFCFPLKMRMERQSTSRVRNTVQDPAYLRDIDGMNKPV
Assay: cell-based or functional assay
Square brackets hold non-standard residues; d marks the D form. Primed or numbered codes have the meaning given here. Ends that are not written are not given here. Phe(4-Cl) = N[C@@H](Cc1ccc(Cl)cc1)C(=O)O; Phe(4-F) = N[C@@H](Cc1ccc(F)cc1)C(=O)O; Api = NC1(C(=O)O)CCNCC1; NMA″ = not defined here; Sar = CNCC(=O)O
Mark class 1 for reported Activity (EC50, nM), cAMP assay of 5 nM or greater; mark class 0 for anything smaller.

As a guide, the following entries are already answered.
H-Y[Sar][Phe(4-Cl)]LR[dR] (not fully specified (C-terminus); printed as NH2-Tyr-Sar-(4-Cl)Phe-Leu-Arg-DArg-C7H14-COOH) [SEQ ID NO. 28: NH2-Tyr-Sar-(4-Cl)Phe-Leu-Arg-DArg-C7H14-COOH] :: class 0
H-Y[Sar][Phe(4-F)]LR[dR]-NH2 [SEQ ID NO. 12: NH2-Tyr-Sar-(4-F)Phe-Leu-Arg-DArg-NH2] :: class 1
H-Y[Sar][Phe(4-Cl)]LR[NMA″]-NH2 (reading uncertain; also: printed as NH2-Tyr-Sar-(4-Cl)Phe-Leu-Arg-NMA-NH2) [SEQ ID NO. 17: NH2-Tyr-Sar-(4-Cl)Phe-Leu-Arg-NMA-NH2] :: class 0
[dF][dF][dL][dK][Api]-OH (N-terminus assumed; SMILES CC(C)C[C@@H](NC(=O)[C@@H](Cc1ccccc1)NC(=O)[C@H](N)Cc1ccccc1)C(=O)N[C@H](CCCCN)C(=O)NC1(C(=O)O)CCNCC1) [CR845 (SEQ ID NO. 35: DPhe-DPhe-DLeu-DLys-Cap-CO2H)] :: class 0
H-Y[Sar][Phe(4-Cl)]LX[dR]-NH2 (not fully specified (residue 5); printed as NH2-Tyr-Sar-(4-Cl)Phe-Leu-NMA-DArg-NH2) [SEQ ID NO. 13: NH2-Tyr-Sar-(4-Cl)Phe-Leu-NMA-DArg-NH2] :: class 0

Prompt: Hi team, for H-Y[Sar]FLR[dR]-NH2 [SEQ ID NO. 3: NH2-Tyr-Sar-Phe-Leu-Arg-DArg-NH2] , is the recorded Activity (EC50, nM), cAMP assay at or above 5 nM?
Completion: class 1
